Tested on: PKN1
condition_description: concentration: 1 μM,replicates: in singlicate; n = 1;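 note: KINOMEscan kinase panel screen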
property_label: %Inh (%)

# compound, test_target, recorded_result
data = [
    ("Cc1ccc2c(-c3ccncc3)c(-c3ccc(F)cc3)nn2c1.Cl", "PKN1", 0),
    ("Cl.Oc1cc(-c2nc(-c3ccccc3)[nH]c2-c2ccncc2)ccc1Cl", "PKN1", 0),
    ("Cc1occc1-c1nc(N)c(OC[C@@H](N)Cc2c[nH]c3ccccc23)cc1-c1cc2c(C)n[nH]c2cn1", "PKN1", 63),
    ("CN(C)CC(O)COc1ccc(Nc2nccc(-c3cnn4nc(N5CCOCC5)ccc34)n2)cc1 (centres unmarked)", "PKN1", 13),
    ("NC(=O)c1cc(-c2ccccc2)cc2c(C3CCNCC3)c[nH]c12", "PKN1", 50),
    ("Nc1nc(Nc2ccccc2)cc(-c2ccc3c(N)n[nH]c3c2)n1", "PKN1", 50),
    ("C=CC(=O)Nc1cc2c(Nc3ccc(F)c(Cl)c3)ncnc2cc1OCCCN1CCOCC1", "PKN1", 18),
    ("Cl.Cl.Nc1nc(-c2ccc3c(N)n[nH]c3c2)cc(N2CCCC(NC(=O)c3ccccc3)C2)n1 (centres unmarked)", "PKN1", 41),
]

====

Test system: PIK3C2G
condition_description: concentration: 1 μM,replicates: in singlicate; n = 1

# structure, %Inh (%)
data = [
    ("COc1ccc(C[C@@H](CN)NC(=O)c2cc(Br)c(-c3ccnc4[nH]ccc34)s2)cc1.Cl.Cl", 0),
    ("CCN(CC)CCCCNc1ncc2cc(-c3c(Cl)cccc3Cl)c(NC(=O)NC(C)(C)C)nc2n1", 6),
    ("C=CC(=O)Nc1cc2c(Nc3ccc(F)c(Cl)c3)ncnc2cc1OCCCN1CCOCC1", 0),
    ("CNC(=O)c1ccccc1Sc1ccc2c(/C=C/c3ccccn3)n[nH]c2c1", 0),
]

====

Tested on: MAST1
condition_description: concentration: 1 μM,replicates: in singlicate; n = 1

# compound, unit_spec, %Inh
rows = [
    ("O=C(NCCNc1ccnc(NCc2ccc(F)cc2)n1)c1cc2ccccc2s1 [GSK1379944]", "%", 0),
    ("O=C(NCCCN1CCOC1=O)c1cnc(NCc2cc(Cl)ccc2Cl)nc1NC1CCCC1", "%", 19),
    ("Cl.Cl.NC[C@H](Cc1ccc(C(F)(F)F)cc1)NC(=O)c1cc(Br)c(-c2ccnc3[nH]ccc23)s1 [GSK1487252]", "%", 0),
    ("NC(=O)c1cc(-c2ccccc2)cc2c(C3CCNCC3)c[nH]c12 [GSK301362]", "%", 0),
    ("CN(C)CC(O)COc1ccc(Nc2nccc(-c3cnn4nc(N5CCOCC5)ccc34)n2)cc1 (centres unmarked) [GW767488]", "%", 0),
    ("CCN(CC)CCCCNc1ncc2cc(-c3c(Cl)cccc3Cl)c(NC(=O)NC(C)(C)C)nc2n1", "%", 13),
    ("CC(C)N1C(=O)Cc2cc(Nc3ncc(C(F)(F)F)c(NCc4cccc(S(C)(=O)=O)c4)n3)ccc21", "%", 48),
    ("C[C@@H](Oc1cc(-c2cnn(C3CCNCC3)c2)cnc1N)c1c(Cl)ccc(F)c1Cl", "%", 0),
    ("CCN(CC)CCOc1ccc(Nc2ncc3cc(-c4c(Cl)cccc4Cl)c(=O)n(C)c3n2)cc1 [SB-601273]", "%", 48),
    ("Cl.Oc1cc(-c2nc(-c3ccccc3)[nH]c2-c2ccncc2)ccc1Cl [SB-386023]", "%", 21),
    ("Cc1n[nH]c2ccc(-c3cc(OC[C@@H](N)Cc4ccccc4)cnc3-c3ccoc3)cc12.O=C(O)C(F)(F)F.O=C(O)C(F)(F)F [GSK507358]", "%", 0),
    ("Cc1occc1-c1nc(N)c(OC[C@@H](N)Cc2c[nH]c3ccccc23)cc1-c1cc2c(C)n[nH]c2cn1 [GSK1660450]", "%", 19),
    ("C=CC(=O)Nc1cc2c(Nc3ccc(F)c(Cl)c3)ncnc2cc1OCCCN1CCOCC1 [GW781483]", "%", 36),
    ("CCn1c(-c2nonc2N)nc2c(C#CC(C)(C)O)nc(OCCN)cc21.Cl.Cl [GSK902056]", "%", 28),
]

====

Tested on: WNK4
condition_description: concentration: 1 μM,replicates: in singlicate; n = 1
Lab note: anything with %Inh at or over 6% counts as 1; the rest go in -1.

# compound, category
measured = [
    ("CC(C)Nc1cc(-c2ccc3c(N)n[nH]c3c2)nc(N)n1 [GSK2221681]", -1),
    ("C=CC(=O)Nc1cc2c(Nc3ccc(F)c(Cl)c3)ncnc2cc1OCCCN1CCOCC1 [GW781483]", -1),
    ("O=C(NCCCN1CCOC1=O)c1cnc(NCc2cc(Cl)ccc2Cl)nc1NC1CCCC1", 1),
    ("CC(C)N1C(=O)Cc2cc(Nc3ncc(C(F)(F)F)c(NCc4cccc(S(C)(=O)=O)c4)n3)ccc21", 1),
    ("CCn1c(-c2nonc2N)nc2c(C#CC(C)(C)O)nc(OCCN)cc21.Cl.Cl [GSK902056]", -1),
    ("C[C@@H](Oc1cc(-c2cnn(C3CCNCC3)c2)cnc1N)c1c(Cl)ccc(F)c1Cl", 1),
    ("C[C@@H]1CCN(C(=O)CC#N)C[C@@H]1N(C)c1ncnc2[nH]ccc12", -1),
    ("Nc1nc(Nc2ccccc2)cc(-c2ccc3c(N)n[nH]c3c2)n1 [GSK2225749]", -1),
    ("Cl.Cl.NC[C@H](Cc1ccc(C(F)(F)F)cc1)NC(=O)c1cc(Br)c(-c2ccnc3[nH]ccc23)s1 [GSK1487252]", 1),
    ("O=C(NCCNc1ccnc(NCc2ccc(F)cc2)n1)c1cc2ccccc2s1 [GSK1379944]", -1),
    ("CN(C)CC(O)COc1ccc(Nc2nccc(-c3cnn4nc(N5CCOCC5)ccc34)n2)cc1 (stereo not drawn) [GW767488]", -1),
    ("Cc1cc(C(=O)Nc2ccc(Oc3ccc4nc(NC(=O)C5CC5)cn4n3)cc2)nn1-c1ccccc1", 1),
    ("Cl.Oc1cc(-c2nc(-c3ccccc3)[nH]c2-c2ccncc2)ccc1Cl [SB-386023]", 1),
    ("Cl.Cl.Nc1nc(-c2ccc3c(N)n[nH]c3c2)cc(N2CCCC(NC(=O)c3ccccc3)C2)n1 (stereo not drawn) [GSK2286775]", -1),
    ("Cc1occc1-c1nc(N)c(OC[C@@H](N)Cc2c[nH]c3ccccc23)cc1-c1cc2c(C)n[nH]c2cn1 [GSK1660450]", -1),
    ("Cc1ccc(-n2nc(C(C)(C)C)cc2NC(=O)Nc2ccc(OCCN3CCOCC3)c3ccccc23)cc1 [GW839464]", -1),
    ("Cc1ccc2c(-c3ccncc3)c(-c3ccc(F)cc3)nn2c1.Cl [GW461484]", 1),
]

====

Overview of recorded %Inh for various molecules
System: CLK2
condition_description: concentration: 1 μM,replicates: in singlicate; n = 1
property_label: %Inh (%)

# molecule, recorded_result
records = [
    ("Cl.Cl.NC[C@H](Cc1ccc(C(F)(F)F)cc1)NC(=O)c1cc(Br)c(-c2ccnc3[nH]ccc23)s1", 39),
    ("Cc1occc1-c1nc(N)c(OC[C@@H](N)Cc2c[nH]c3ccccc23)cc1-c1cc2c(C)n[nH]c2cn1", 97.5),
    ("CCN(CC)CCCCNc1ncc2cc(-c3c(Cl)cccc3Cl)c(NC(=O)NC(C)(C)C)nc2n1", 0),
    ("Cc1ccc(-n2nc(C(C)(C)C)cc2NC(=O)Nc2ccc(OCCN3CCOCC3)c3ccccc23)cc1", 9),
    ("Cl.Cl.NC[C@H](CC1CCCCC1)NC(=O)c1cc(Br)c(-c2ccnc3[nH]ccc23)s1", 71),
    ("CC(C)Nc1cc(-c2ccc3c(N)n[nH]c3c2)nc(N)n1", 44),
    ("CC(C)N1C(=O)Cc2cc(Nc3ncc(C(F)(F)F)c(NCc4cccc(S(C)(=O)=O)c4)n3)ccc21", 34),
    ("Cc1n[nH]c2ccc(-c3cc(OC[C@@H](N)Cc4ccccc4)cnc3-c3ccoc3)cc12.O=C(O)C(F)(F)F.O=C(O)C(F)(F)F", 54),
    ("Cl.Oc1cc(-c2nc(-c3ccccc3)[nH]c2-c2ccncc2)ccc1Cl", 0),
    ("C[C@H]1Oc2cc(cnc2N)-c2c(nn(C)c2C#N)CN(C)C(=O)c2ccc(F)cc21", 4),
    ("Cc1ccc2c(-c3ccncc3)c(-c3ccc(F)cc3)nn2c1.Cl", 0),
    ("C=CC(=O)Nc1cc2c(Nc3ccc(F)c(Cl)c3)ncnc2cc1OCCCN1CCOCC1", 0),
    ("O=C(NCCNc1ccnc(NCc2ccc(F)cc2)n1)c1cc2ccccc2s1", 0),
    ("Cc1cc(C(=O)Nc2ccc(Oc3ccc4nc(NC(=O)C5CC5)cn4n3)cc2)nn1-c1ccccc1", 1),
    ("CCN(CC)CCOc1ccc(Nc2ncc3cc(-c4c(Cl)cccc4Cl)c(=O)n(C)c3n2)cc1", 10),
    ("Cl.Cl.Nc1nc(-c2ccc3c(N)n[nH]c3c2)cc(N2CCCC(NC(=O)c3ccccc3)C2)n1 (stereo not shown)", 15),
]
